The following binders are shown together with reported Binding affinity (RU) values.
- subject of test: acetylcholine receptor
- method notes: SPR, receptor on CM5 chip, peptide 10 µM
Numeric answer only, unit RU assumed.

INSERT INTO assay_data (binder, measure_name, units_symbol, measured_number) VALUES
  ('RKLQTK [6mer-1-475]', 'Binding affinity (RU)', 'RU', 148),
  ('RKLQSK [6mer-1-500]', 'Binding affinity (RU)', 'RU', 151),
  ('KRRQCK [6mer-1-519]', 'Binding affinity (RU)', 'RU', 147),
  ('RKQVRK [6mer-1-482]', 'Binding affinity (RU)', 'RU', 133),
  ('KRGYLR [6mer-1-493]', 'Binding affinity (RU)', 'RU', 131),
  ('RKLFYR [6mer-1-499]', 'Binding affinity (RU)', 'RU', 149);

Consider the binder KKVYLR [6mer-1-97] and give its measured Binding affinity (RU).
139

Consider the binder KRRLCK [6mer-1-503] and give its measured Binding affinity (RU).
151
